Source: patent US20210238298A1

Target: T1, OX40 chimera 1548: human OX40 with mouse module 3 and domains 4A and 4B (aa 108-167), on FreeStyle 293-F cells (human; mouse, UniProt P47741 104-165)
T1 construct: domain: module 3, 4A and 4B; Limits derived as for 1544
T1 sequence: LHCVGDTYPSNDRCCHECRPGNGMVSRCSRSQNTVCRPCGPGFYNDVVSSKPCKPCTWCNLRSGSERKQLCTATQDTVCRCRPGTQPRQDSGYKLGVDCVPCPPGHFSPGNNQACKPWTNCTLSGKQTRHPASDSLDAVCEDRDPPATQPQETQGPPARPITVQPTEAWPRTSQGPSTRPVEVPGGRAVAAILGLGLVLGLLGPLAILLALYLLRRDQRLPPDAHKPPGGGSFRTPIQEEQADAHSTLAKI
Experiment: flow cytometry, 293-F transfectants; further: test concentration or dose not given here
PARAMETER_MEASURED: relative MFI vs isotype control
Respond numerically, and do not add a unit to the figure.

Study these solved cases before continuing.
BINDER	relative MFI vs isotype control
anti-OX40 antibody 1524/1525 (antibody, V domains shown, Tested as IgG) VH: EVQLLESGGGLVQPGGSLRLSCAASGFTFGSYYMGWVRQAPGKGLEWVSSIGSYYGYTYYADSVKGRFTISRDNSKNTLYLQMNSLRAEDTAVYYCARHDYGALDYWGQGTLVTVSS VL: DIQMTQSPSSLSASVGDRVTITCRASQSISSYLNWYQQKPGKAPKLLIYAASSLQSGVPSRFSGSGSGTDFTLTISSLQPEDFATYYCQQYGPSGLFTFGQGTKLEIK	15.4
anti-OX40 antibody 1482/1483 (antibody, V domains shown, Tested as IgG) VH: EVQLLESGGGLVQPGGSLRLSCAASGFTFSSYAMSWVRQAPGKGLEWVSYISYYSGYTYYADSVKGRFTISRDNSKNTLYLQMNSLRAEDTAVYYCARGYGYLDYWGQGTLVTVSS VL: DIQMTQSPSSLSASVGDRVTITCRASQSISSYLNWYQQKPGKAPKLLIYAASSLQSGVPSRFSGSGSGTDFTLTISSLQPEDFATYYCQQYGSLLTFGQGTKLEIK	1.1

[ask] Using known records, supply relative MFI vs isotype control for anti-OX40 antibody 1514/1515 (antibody, V domains shown, Tested as IgG) VH: EVQLLESGGGLVQPGGSLRLSCAASGFTFGYYYMSWVRQAPGKGLEWVSGISSYGSYTYYADSVKGRFTISRDNSKNTLYLQMNSLRAEDTAVYYCARSGYSNWANSFDYWGQGTLVTVSS VL: DIQMTQSPSSLSASVGDRVTITCRASQSISSYLNWYQQKPGKAPKLLIYAASSLQSGVPSRFSGSGSGTDFTLTISSLQPEDFATYYCQQGDYTLFTFGQGTKLEIK
[reply] 17.2
